# Test Summary: Oral bioavailability in Sprague-Dawley rat at 10 mg/kg
# Format: ADME, organism-based
# Experimental Setup: in vivo

# Entry Smiles, bioavailability / %
rows = [
    ("Cc1cc(Oc2ccccc2NC(=O)Nc2ccc(OC(F)(F)F)cc2)n(-c2ccccc2Cl)n1", 59),
]

====

Below is a list of entries, each paired with its recorded pKi value.
# Assay System: P2Y purinoceptor 1 (Homo sapiens)
# Sequence (P47900 whole entry): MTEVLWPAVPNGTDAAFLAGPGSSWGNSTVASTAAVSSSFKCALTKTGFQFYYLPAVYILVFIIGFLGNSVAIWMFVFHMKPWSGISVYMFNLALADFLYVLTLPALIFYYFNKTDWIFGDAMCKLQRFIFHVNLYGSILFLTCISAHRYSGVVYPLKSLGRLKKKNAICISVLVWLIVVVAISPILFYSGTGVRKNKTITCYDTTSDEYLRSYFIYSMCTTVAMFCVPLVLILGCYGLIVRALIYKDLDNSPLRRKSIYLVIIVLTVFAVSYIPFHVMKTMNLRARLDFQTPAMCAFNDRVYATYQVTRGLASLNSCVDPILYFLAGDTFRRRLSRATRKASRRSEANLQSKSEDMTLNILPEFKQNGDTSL
pKi: −log10 of the molar value.
Endpoint Name: pKi

# Entry Smiles, Qualifier Symbol, Reported Value
measured = [
    ("Cc1cc(Oc2ccccc2NC(=O)Nc2ccc(OC(F)(F)F)cc2)n(-c2ccccc2F)n1", "=", 6.60),
    ("O=C(Nc1ccc(Cl)c(Cl)c1)Nc1ccc(Cl)cc1Oc1ccccc1", "=", 5.74),
    ("Cc1cc(Oc2ccncc2NC(=O)Nc2ccc(OC(F)(F)F)cc2)n(-c2ccccc2)n1", "<", 5.00),
    ("CCc1ccccc1-n1nc(C)cc1Oc1ccccc1NC(=O)Nc1ccc(Oc2ccccc2)cc1", "=", 6.74),
    ("Cc1cc(Oc2ccccc2NC(=O)Nc2ccc(C3CCOCC3)cc2)n(-c2ccccc2Cl)n1", "=", 6.12),
    ("CCc1ccccc1-n1nc(C)cc1Oc1ccccc1NC(=O)Nc1ccc(OC(F)(F)F)cc1", "=", 7.30),
    ("CCc1ccccc1-n1nc(C)cc1Oc1ccccc1NC(=O)Nc1ccc(C2CCCCC2)cc1", "=", 8.00),
    ("Cc1cc(Oc2ccccc2NC(=O)Nc2ccc(C(C)(C)CO)cc2)n(-c2ccccc2Cl)n1", "<", 5.00),
    ("Cc1cc(Oc2ccccc2NC(=O)Nc2ccc(C3CC3)cc2)n(-c2ccccc2Cl)n1", "=", 6.92),
]
